Attribute: solubility
# measurement_description: Solubility in water
# Type: physicochemical

{"columns": ["compound", "solubility"],
 "data": [
  ["CC(=O)OCCN(C)C(=O)OC[n+]1cnn(C[C@](O)(c2cc(F)ccc2F)[C@@H](C)c2nc(-c3ccc(C#N)cc3)cs2)c1.[I-]", "< 1000 µg/mL"],
  ["CC(=O)OCCCN(C)C(=O)OC[n+]1cnn(C[C@](O)(c2cc(F)ccc2F)[C@@H](C)c2nc(-c3ccc(C#N)cc3)cs2)c1.[I-]", "< 1000 µg/mL"],
  ["CNCC(=O)OCc1cc(F)c(F)cc1N(C)C(=O)OC(C)[n+]1cnn(C[C@](O)(c2cc(F)ccc2F)[C@@H](C)c2nc(-c3ccc(C#N)cc3)cs2)c1.[Cl-] (stereo partly drawn)", "> 10000 µg/mL"]
]}

---

# measurement_description: Half life in rat plasma
# Format: ADME
# experimental_parameters: plasma
Attribute: half-life

{"columns": ["compound", "half-life"],
 "data": [
  ["CNCC(=O)OCc1c(F)cccc1N(C)C(=O)OC(C)[n+]1cnn(C[C@](O)(c2cc(F)ccc2F)[C@@H](C)c2nc(-c3ccc(C#N)cc3)cs2)c1.[Cl-] (some centres undefined)", "< 2 min"],
  ["CNCC(=O)OCc1cccnc1N(C)C(=O)OC(C)[n+]1cnn(C[C@](O)(c2cc(F)ccc2F)[C@@H](C)c2nc(-c3ccc(C#N)cc3)cs2)c1.[Cl-] (some centres undefined)", "< 1 min"],
  ["C[C@@H](c1nc(-c2ccc(C#N)cc2)cs1)[C@](O)(Cn1c[n+](COC(=O)N(C)c2ccccc2)cn1)c1cc(F)ccc1F.[Cl-]", "1740 min"],
  ["CNCC(=O)OCc1ccc(Cl)cc1N(C)C(=O)OC(C)[n+]1cnn(C[C@](O)(c2cc(F)ccc2F)[C@@H](C)c2nc(-c3ccc(C#N)cc3)cs2)c1.[Cl-] (some centres undefined)", "< 2 min"]
]}

---

# measurement_description: Solubility in water
# Format: physicochemical

{"columns": ["molecule", "solubility"],
 "data": [
  ["CNCC(=O)OCc1cc(F)ccc1N(C)C(=O)OC(C)[n+]1cnn(C[C@](O)(c2cc(F)ccc2F)[C@@H](C)c2nc(-c3ccc(C#N)cc3)cs2)c1.[Cl-] (some centres not stated)", "> 10 mg/mL"],
  ["CNCC(=O)OCc1c(F)cccc1N(C)C(=O)OC(C)[n+]1cnn(C[C@](O)(c2cc(F)ccc2F)[C@@H](C)c2nc(-c3ccc(C#N)cc3)cs2)c1.[Cl-] (some centres not stated)", "> 10 mg/mL"],
  ["C[C@@H](c1nc(-c2ccc(C#N)cc2)cs1)[C@](O)(Cn1c[n+](COC(=O)N(C)c2ccccc2)cn1)c1cc(F)ccc1F.[Cl-]", "< 1 mg/mL"],
  ["CC(=O)OCc1ccccc1N(C)C(=O)OC[n+]1cnn(C[C@](O)(c2cc(F)ccc2F)[C@@H](C)c2nc(-c3ccc(C#N)cc3)cs2)c1.[Cl-]", "1 mg/mL"],
  ["CNCC(=O)OCc1ccc(Cl)cc1N(C)C(=O)OC(C)[n+]1cnn(C[C@](O)(c2cc(F)ccc2F)[C@@H](C)c2nc(-c3ccc(C#N)cc3)cs2)c1.[Cl-] (some centres not stated)", "> 10 mg/mL"],
  ["CNCC(=O)OCc1cccnc1N(C)C(=O)OC(C)[n+]1cnn(C[C@](O)(c2cc(F)ccc2F)[C@@H](C)c2nc(-c3ccc(C#N)cc3)cs2)c1.[Cl-] (some centres not stated)", "> 100 mg/mL"],
  ["CC(=O)OC[C@@H]1CCCN1C(=O)OC[n+]1cnn(C[C@](O)(c2cc(F)ccc2F)[C@@H](C)c2nc(-c3ccc(C#N)cc3)cs2)c1.[I-]", "< 1 mg/mL"]
]}
